tested on: SNB-19 CNS; experiment: NCI tumour cell line growth inhibition, 48 h
Where a SMILES comes first, the peptide text is derived from it. [ ]: non-standard residue; d: D form. The star is where a group is joined. ξ: configuration not given here. X16 = COC1=CC(=O)N(C(=O)C(O*)C(C)C)C1Cc1ccccc1; ξNMe2Val = CC(C)C(C(=O)*)N(C)C; NMeV = CN[CH](C(=O)O)C(C)C; hSer = N[CH](CCO)C(=O)O; Boc = CC(C)(C)OC(=O)*
REPORTED_PROPERTY: TGI

>  <COMPOUND>
CCC1(O)C=CC(=O)C=C1

>  <REPORTED_PROPERTY>
TGI

>  <RESULT>
39.2 µM

$$$$
>  <COMPOUND>
COc1ccc2c(c1)C(=O)c1c-2c(NCCCN(C)C)nc2ccccc12

>  <REPORTED_PROPERTY>
TGI

>  <RESULT>
21.2 µM

$$$$
>  <COMPOUND>
COc1cc(-c2c3c(cn2S(=O)(=O)c2ccccc2)-c2nc(N)sc2CC3)cc(OC)c1OC

>  <REPORTED_PROPERTY>
TGI

>  <RESULT>
> 100 µM

$$$$
>  <COMPOUND>
COc1ccc(C2C3=C(NC(=O)C2C#N)c2ccc4ccccc4c2OCC3)cc1 (configuration not stated)

>  <REPORTED_PROPERTY>
TGI

>  <RESULT>
> 100 µM

$$$$
>  <COMPOUND>
COc1ccc(-n2sc3ncc(-c4ccccc4)cc3c2=O)cc1

>  <REPORTED_PROPERTY>
TGI

>  <RESULT>
80.8 µM

$$$$
>  <COMPOUND>
COC(=O)c1cnc2nc(N3CCOCC3)[nH]n2c1=O

>  <REPORTED_PROPERTY>
TGI

>  <RESULT>
> 100 µM

$$$$
>  <COMPOUND>
C=C1C(=O)O[C@@H]2C[C@]3(C)[C@@H](C[C@H]12)[C@](C)(O)CC[C@@H]3O

>  <REPORTED_PROPERTY>
TGI

>  <RESULT>
> 100 µM

$$$$
>  <COMPOUND>
COCCC(NC(=O)C(CC(C)C)NC(=O)OC(C)(C)C)C(N)=O (stereo not drawn) (Boc-Leu-[hSer](Me)-NH2; configuration not given here)

>  <REPORTED_PROPERTY>
TGI

>  <RESULT>
> 100 µM

$$$$
>  <COMPOUND>
COc1c(C2(c3ccc(F)cc3)SCCCS2)c(=O)c1=O

>  <REPORTED_PROPERTY>
TGI

>  <RESULT>
> 100 µM

$$$$
>  <COMPOUND>
COC(=O)/C(=C/c1ccc(OC)cc1)C(C(=O)O)=C(C)C

>  <REPORTED_PROPERTY>
TGI

>  <RESULT>
> 100 µM

$$$$
>  <COMPOUND>
O=C1CC(NC(=O)C(F)(F)F)c2c(Br)sc(N3CCC(c4ccccc4)CC3)c21 (configuration not stated)

>  <REPORTED_PROPERTY>
TGI

>  <RESULT>
78.2 µM

$$$$
>  <COMPOUND>
O=S(=O)(O)c1ccc(NN(c2c(O)ccc3ccccc23)S(=O)(=O)O)cc1

>  <REPORTED_PROPERTY>
TGI

>  <RESULT>
> 100 µM

$$$$
>  <COMPOUND>
COC1=CC(=O)N(C(=O)C(OC(=O)C2CCCN2C(=O)C2CCCN2C(=O)C(C(C)C)N(C)C(=O)C(NC(=O)C(C(C)C)N(C)C)C(C)C)C(C)C)C1Cc1ccccc1 (configuration not stated) (ξNMe2Val-V[NMeV]PP-X16; configuration not given here)

>  <REPORTED_PROPERTY>
TGI

>  <RESULT>
0.118 µM

$$$$
>  <COMPOUND>
O=C(C=P(c1ccccc1)(c1ccccc1)c1ccccc1)C12CC3CC(CC(C3)C1)C2

>  <REPORTED_PROPERTY>
TGI

>  <RESULT>
27 µM

$$$$
>  <COMPOUND>
Cc1c(Cl)ccc2c1NC(=O)C2(O)CC(=O)c1ccc(Cl)cc1Cl (configuration not stated)

>  <REPORTED_PROPERTY>
TGI

>  <RESULT>
> 50 µM

$$$$
>  <COMPOUND>
CC(NC(=O)c1ccccc1)C(=O)N(Cc1ccccc1)Cc1ccccc1 (configuration not stated)

>  <REPORTED_PROPERTY>
TGI

>  <RESULT>
> 100 µM

$$$$
>  <COMPOUND>
CCOC(=O)C1(Cc2ccc(C)cc2)Cc2ccc(C)cc2C1=O (configuration not stated)

>  <REPORTED_PROPERTY>
TGI

>  <RESULT>
> 100 µM

$$$$
>  <COMPOUND>
Cc1ccc(S(=O)(=O)N(C)C)cc1[N+](=O)[O-]

>  <REPORTED_PROPERTY>
TGI

>  <RESULT>
> 100 µM

$$$$
>  <COMPOUND>
O=[N+]([O-])c1ccccc1S(=O)c1ccccc1 (configuration not stated)

>  <REPORTED_PROPERTY>
TGI

>  <RESULT>
> 100 µM

$$$$
>  <COMPOUND>
CN(NC(=O)c1ccco1)C1=NCCCCN1

>  <REPORTED_PROPERTY>
TGI

>  <RESULT>
> 100 µM

$$$$
>  <COMPOUND>
O=C1C=C(SCCO)C(=O)c2ccccc21

>  <REPORTED_PROPERTY>
TGI

>  <RESULT>
4.18 µM

$$$$
>  <COMPOUND>
Fc1cccc(F)c1C1SCC2=Nc3ccccc3CN21 (configuration not stated)

>  <REPORTED_PROPERTY>
TGI

>  <RESULT>
> 100 µM

$$$$

###

test system: MDA-N; experiment: NCI tumour cell line growth inhibition, 48 h
Where a SMILES comes first, the peptide text is derived from it. [ ]: non-standard residue; d: D form. The star is where a group is joined. ξ: configuration not given here. X16 = COC1=CC(=O)N(C(=O)C(O*)C(C)C)C1Cc1ccccc1; ξNMe2Val = CC(C)C(C(=O)*)N(C)C; NMeV = CN[CH](C(=O)O)C(C)C
Here the recorded TGI is given for each entry.

>  <MOLECULE>
O=S(=O)(O)c1ccc(NN(c2c(O)ccc3ccccc23)S(=O)(=O)O)cc1

>  <TGI>
> 100 µM

$$$$
>  <MOLECULE>
COc1ccc(C2SCC(=O)N2N=C2NC(=O)CC(=O)N2)cc1 (stereo not drawn)

>  <TGI>
> 100 µM

$$$$
>  <MOLECULE>
COC1=CC(=O)N(C(=O)C(OC(=O)C2CCCN2C(=O)C2CCCN2C(=O)C(C(C)C)N(C)C(=O)C(NC(=O)C(C(C)C)N(C)C)C(C)C)C(C)C)C1Cc1ccccc1 (stereo not drawn) (ξNMe2Val-V[NMeV]PP-X16; configuration not given here)

>  <TGI>
0.000275 µM

$$$$
>  <MOLECULE>
CSc1n[nH]c(N)c1C(=O)Nc1ccc(Cl)cc1

>  <TGI>
> 100 µM

$$$$
>  <MOLECULE>
O=S(=O)(c1cccc(C(F)(F)F)c1)N1c2ccccc2-n2cccc2C1c1cccnc1 (stereo not drawn)

>  <TGI>
> 100 µM

$$$$
>  <MOLECULE>
CSc1nc2c(c(N(C)C)n1)C=Nn1c(nc3ccccc31)S2

>  <TGI>
> 100 µM

$$$$
>  <MOLECULE>
CCOC(=O)CC(C)C(C#N)(OP1(=O)OC(c2ccccc2)C(C)N1C)c1ccccc1 (stereo not drawn)

>  <TGI>
> 100 µM

$$$$
>  <MOLECULE>
O=C1N[C@H]2c3c(Cl)sc(Cl)c3C(=O)[C@H]2O1

>  <TGI>
> 57.5 µM

$$$$
>  <MOLECULE>
N/C(CC/C(N)=N\O)=N\O

>  <TGI>
> 100 µM

$$$$
>  <MOLECULE>
Fc1cccc(F)c1C1SCC2=Nc3ccccc3CN21 (stereo not drawn)

>  <TGI>
> 100 µM

$$$$
>  <MOLECULE>
COC(=O)C(=O)C(C(=O)C(=O)Nc1ccccc1C(=O)OC)c1nc2ccc(C(=O)c3ccccc3)cc2[nH]c1=O (stereo not drawn)

>  <TGI>
> 100 µM

$$$$
>  <MOLECULE>
COc1ccc2c(O)c3[n+](cc2c1OC)CCc1cc2c(cc1-3)OCO2

>  <TGI>
> 100 µM

$$$$
>  <MOLECULE>
N#Cc1[nH]c(=O)n(-c2ccc([N+](=O)[O-])cc2)c1N

>  <TGI>
> 10 µM

$$$$
>  <MOLECULE>
C[N+]1(C)C2Cc3ccccc3C1Cc1ccccc12

>  <TGI>
> 100 µM

$$$$
>  <MOLECULE>
COc1ccccc1-c1cc2c3c(nc4ccccc42)C(=O)c2cccnc2-c3n1

>  <TGI>
28.5 µM

$$$$
>  <MOLECULE>
CCC1(O)C=CC(=O)C=C1

>  <TGI>
> 100 µM

$$$$
>  <MOLECULE>
Cc1c(Cl)ccc2c1NC(=O)C2(O)CC(=O)c1ccc(Cl)cc1Cl (stereo not drawn)

>  <TGI>
> 50 µM

$$$$
>  <MOLECULE>
COc1cc2c(cc1OC)C(=O)N(c1ccc(O)cc1)C2

>  <TGI>
> 100 µM

$$$$
